- Assay text: CREB reporter modulators without forskolin, primary screen, cell-based, PC12, CRE-LacZ reporter, unstimulated (AID 1145)
- Measurement setup: no forskolin, luminescence, 4.5 h, higher = more signal, called active from +8 up or from −8 down
Active and inactive are the calls of the source.
Give measured z-score for each item. Keep answers brief.

Entry under test: C=CCC(OC(C)=O)[C@@H]1[C@@H](N(Cc2ccc(-c3cccc(C(F)(F)F)c3)o2)C(=O)Cc2ccc(F)cc2)c2cc(OCCCO)ccc2N1C(=O)c1ccc2ccccc2n1 (stereo partly specified) . Its z-score was 0.134 (inactive)

Entry under test: COCCOC(=O)N1C(=O)[C@@]2(c3cc(C#CC4(O)CCCCCC4)ccc31)[C@H](C(=O)N1CCc3cc(OC)c(OC)cc3C1)[C@H]1C(=O)O[C@H](c3ccccc3)[C@H](c3ccccc3)N1[C@@H]2c1ccc(O)cc1 . Its z-score was 1.68 (inactive)

Entry under test: C=CCOC(=O)[C@H]1[C@@H]2C(=O)O[C@@H](c3ccccc3)[C@@H](c3ccccc3)N2[C@@H](c2ccc(OCCOC(=O)[C@@H]3C[C@@H]4C(=O)N[C@@H](CC(C)C)C(=O)N4[C@@H]3c3ccc(O)cc3)cc2)[C@]12C(=O)Nc1ccc(I)cc12 . Its z-score was 0.281 (inactive)

Entry under test: CCCCC(O)C1C=CC2C(=O)NC(=O)C2N1Nc1ccccn1 (stereo unspecified) . Its z-score was -0.133 (inactive)

Entry under test: CCCCC(=C=CC[C@@H](O)c1cccc(OCCO)c1)CCO . Its z-score was 3.5 (inactive)

Entry under test: Cc1ccc(S(=O)(=O)N2[C@@H](c3ccccc3)C(C(=O)O)=CC[C@H]2c2ccc(C#N)cc2)cc1 . Its z-score was -0.275 (inactive)

The reported numbers originate from PubChem BioAssay.
